Assignment: determine reported GI50 for the given compounds.
# Tested on: EKVX
# assay procedure: NCI tumour cell line growth inhibition, 48 h
The source made the active and inactive calls. Cut-off read from the data, not from the text of the source: active = GI50 up to about 1.1 µM and inactive = higher.

Retrieve GI50 measured for N#C/C(=C/NC(=S)NCc1ccccc1)C(N)=O and print it.
> 100 µM (inactive)

Give GI50 for the following compound: Cc1ccccc1NC(=O)/C(=N/NC(=O)CC#N)C1C(=O)N(c2ccccc2)N=C1N (configuration not stated)
> 100 µM (inactive)

Kindly indicate its recorded GI50. Item: O=C(N[C@H]1CC2(C=C(I)C(=O)C(I)=C2)OC1=O)OCc1ccccc1
14.3 µM (inactive)

Report GI50, nothing else, for this compound: O=C(O)CCC1(c2ccccc2)NC(=O)NC1=O (configuration not stated)
> 100 µM (inactive)

Determine its reported GI50: CC1(CO)C(O)CCC2(C)C1CCC1CC3CC12CCC3(O)CO (configuration not stated)
> 64.6 µM (inactive)

Indicate its recorded GI50; the compound in question is OC1COC(OCc2ccccc2)C(O)C1O (configuration not stated)
> 100 µM (inactive)

Identify measured GI50 corresponding to CC1=CC(=O)N(n2c(C)n[nH]c2=O)C1=O
> 100 µM (inactive)

Respond only with GI50 recorded for [O-][Cl+3]([O-])([O-])O.c1ccc(C2=NN2c2ccccc2)cc1
92.7 µM (inactive)

Return the recorded GI50 value; entry: CC1COC(C)(C)P(=O)(c2ccccc2)C1 (configuration not stated)
> 100 µM (inactive)

Please report the measured GI50 for CCc1cccc(=O)c([O-])c1.CCc1cccc(=O)c([O-])c1.[Bi+3].[Cl-]
13.8 µM (inactive)

Read the entry CSC(SC)=C1C(=O)NN=C1C and write its reported GI50.
> 100 µM (inactive)

In one line, give reported GI50 of the entry COc1ccc2cc(C(C)C(=O)N3C(=O)OCC3(C)C)ccc2c1 (configuration not stated) .
> 100 µM (inactive)

====

# System: T47D
# assay procedure: NCI tumour cell line growth inhibition, 48 h
Active and inactive are the calls of the source. Cut-off read from the data, not from the text of the source: active = GI50 up to about 1.1 µM and inactive = higher.
assay endpoint: GI50

Input CC(C)(C)N(Cc1ccc2c(c1)OCO2)C(=O)/C=C\[S+]([O-])c1ccccc1 (stereo not given) , output reported GI50.
2.56 µM (inactive)

Provide only the value of recorded GI50 for COc1ccccc1C1C2=C(COC2=O)Oc2cc3c(cc21)OCO3 (stereo not given)
2.32 µM (inactive)

Let me know recorded GI50 for CC(CO)CCNc1ncnc2c1ncn2CCC(=O)O (stereo not given) , thanks.
> 100 µM (inactive)

Consider the compound O=C1CC(=O)c2c(N3CCCC3)sc(N3CCCC3)c21 . State its measured GI50.
> 100 µM (inactive)

Provide measured GI50 value, entry: NCCNCCCCCCNC(=O)c1cccc2cc3ccccc3nc12
5.13 µM (inactive)

Item CCC1(C)N=c2c(ncn2N=C(C)C)=C(C(N)=O)N1 (stereo not given) : provide GI50
> 100 µM (inactive)

Read the entry O=C(N/C(=C\c1ccccc1)c1nc2ccccc2c(=O)o1)c1ccccc1 and write its reported GI50.
> 28.6 µM (inactive)

Return GI50 for the following compound: O=C(O)CN(CC(=O)O)Cc1ccn(-c2cccc(-n3ccc(CN(CC(=O)O)CC(=O)O)n3)n2)n1
> 100 µM (inactive)

Please supply the value of reported GI50 for the item CCCCCCC(=O)OC[n+]1ccc(-c2c(COC(=O)NC(C)C)c(COC(=O)NC(C)C)c3n2CCC3)cc1
> 100 µM (inactive)

Return reported GI50. Input compound: COc1ccc2cc(C(C)C(=O)N3C(=O)OCC3(C)C)ccc2c1 (stereo not given)
> 100 µM (inactive)
